- Tested on: MS2 coat protein
- procedure text: apparent KD of MS2 coat protein; higher = weaker reporter binding
- run parameters: Eterna round: R107; input ligand: arginine 13.2 mM
Label fulfilled when apparent KD of MS2 coat protein >= 40 nM; otherwise not fulfilled.

Solved cases below.
[[record]]
residue_codes = "GGCACCAGGAGAAGGAGCGUGAAGACAUGAGGAUCACCCAUGUAGAGGCCCGUACUGGGUUCGCAGGUAGGUCGCUCCUGGUGCC [#1 Same State - Arginine B Attempt #13 (HarryS)]"
assigned_category = "not fulfilled"

[[record]]
residue_codes = "UGGGUAGAAUAGAUAGAUAGAUAAACUGAAGGAGCGAGAAUAAACUCAGGUAGGUCGCAGACAUGAGGAUCACCCAUGUAGAUGG [Same State Arginine A GF15]"
assigned_category = "fulfilled"

[[record]]
residue_codes = "AAUAACAUGAGGAUCACCCAUGUAAAAGAUACCAGAGUGAUGAUCCUCCCUUGGCAGCUUAAACGCUAUUGGAAACAAUAGCGAA [Mat - Same State Theophlline A - Mod of Eli - D3]"
assigned_category = "fulfilled"

[[record]]
residue_codes = "UUUACAUGAGGAUCACCCAUGUGCCAUGAUACCAGACAUGAAAAUGUCCCUUGGCAGCAUGAAUGAUUCAUAGGAUAAUUAUGGG [Obrany]"
assigned_category = "fulfilled"

[[record]]
residue_codes = "CGAUAUAAGACGGCCGCCACUAUUAUGUAACAAAAUAAACAUGAGGAUCACCCAUGUACAUGGGAUAGGACCGGGUCCAAUAACG [#21 Same State - Tryptophan B]"
assigned_category = "fulfilled"

[[record]]
residue_codes = "UUAUCUAUAUUCGAUACCAGUACCCUGGCCGCAAAUCCUAACAUGAGGAUCACCCAUGUGUACCCUUGGCAGCGGGUAUGGGUUU [XTheo B #29]"
assigned_category = "not fulfilled"


Enquiry: apparent KD of MS2 coat protein >= 40 nM for GUUAUGGACCUGGAUACCAGCUGGUACGAGGGCGGUCUACAUGAGGAUCACCCAUGUGUCAGCCCUUGGCAGCCAGCAACCCGCU [Raquleer] ?
Return: not fulfilled

Enquiry: Check this sequence for apparent KD of MS2 coat protein at or above 40 nM: UGUACCAUGUCGGCCGCCACUCAUGAUAAACAUGAGGAUCACCCAUGUAGCGUCAAAGACGCUAUGAGGACCGGGACAUGGUACU [TryBS Zipper 2 #StaticStem #Zipper]
Return: not fulfilled

Enquiry: Does apparent KD of MS2 coat protein meet or surpass 40 nM for AAAUGAAGGCGAAGGAGCGCGAACAUGAGGAUCACCCAUGUGUAUGUAUGUAGUCAUGUAUCGCAGGUAGGUCGCGCUGUUACAU [Exclusion Arginine B] ?
Return: fulfilled

Enquiry: Item GGUCUCUGGAGCGAUACCAGCUUAAGUGUACUGGCCAGGUACAUGAGGAUCACCCAUGUAAGCCCUUGGCAGCGCUCCAGAGACC [#1 Exclusion - Theophylline B Attempt #14 (HarryS)] with apparent KD of MS2 coat protein of 40 nM or above?
Return: not fulfilled

###

- Tested on: MS2 coat protein
- procedure text: apparent KD of MS2 coat protein; designed switch direction (-1 OFF switch, 1 ON switch): -1; higher = weaker reporter binding
- run parameters: input ligand: none
Everything with apparent KD of MS2 coat protein lower than 40 nM is label 0; everything else, including exactly 40 nM, is label 1.

Consider the worked cases shown below.
[[record]]
residue_codes = "AUAUAGAUGGUCAGGAUAUGCUAGUGAUAACAGUAGCAGAAGGGACAUGAGGAUCACCCAUGUGGAUAGCGCAC [Brourd's EX4 #6] (Eterna round: R97, puzzle: Brourd's mod of Exclusion 4)"
assigned_category = "label 0"

[[record]]
residue_codes = "GGUUGGCGAGGAUAUACAUGAGGAUCACCCAUGUGGUCCUGUGGCUGAUCUAGCCUAUGUAGAAGGCGCAAAUC [salish99_ex3_r4_013] (Eterna round: R97, puzzle: Exclusion 3)"
assigned_category = "label 1"

[[record]]
residue_codes = "GCUAAACAUGUAGGAUAUGCGUGGCGAAGCUAUGCAGAAGGACAUGAGGAUCACCCAUGUUUUAGCGUCUGCGUACAGAUGCGU [JL ENG1 1.43] (Eterna round: R96, puzzle: Exclusion NG 1)"
assigned_category = "label 0"

[[record]]
residue_codes = "AAGAUUAUUUCAGGAUAUAGAUUGAUGAUCGUACUAGAAGGGAAAACACAGUACAUGAGGAUCACCCAUGUUCAUGUAGUGCCA [Eternabot solution 29] (Eterna round: R96, puzzle: Exclusion NG 1)"
assigned_category = "label 0"

[[record]]
residue_codes = "AGGUCCUUCUGGACACAUGAGGAUCACCCAUGUGCGGUCAGCGAGGAUAUCGGUCUAUAAUGUGACGAGAAGGCGCGGACCGAU [Ex NG3 #60] (Eterna round: R96, puzzle: Exclusion NG 3)"
assigned_category = "label 0"

[[record]]
residue_codes = "GGCGGACAUGAGGAUCACCCAUGUCAGGAUAUUAGGCGAUCGUCGAAAGACGAUAGCCUGAGAAGGGACGCGCC [Eli x1 4.13] (Eterna round: R97, puzzle: Exclusion 1)"
assigned_category = "label 0"


Enquiry: Is it the case that GGCAUGUAAGGAUAUGCCACUGAGUGCUUUGCGCUCAGUAAGCAGAAGGUACAUGAGGAUCACCCAUGUGAUAA [jl-ex4-4.54 ViennaUCT mod] (Eterna round: R97, puzzle: Exclusion 4) has apparent KD of MS2 coat protein reaching or exceeding 40 nM?
Return: label 1

Enquiry: In plain terms: is recorded apparent KD of MS2 coat protein at least 40 nM for UUCGUGCAGCUUUGCUGUACGCGUACAUGAGGAUCACCCAUGUAGGAUAUGGUAGGCUUUGCUUACUAGAAGGAUAGAGUGAUC [JL EXNG3 1.29] (Eterna round: R96, puzzle: Exclusion NG 3) ?
Return: label 1
